Molecular target: Bcl-2-like protein 10 (Homo sapiens)
Assay: TR3 peptide-Bcl-B binding displacers, biochemical primary FP assay, phenotype converters (AID 1240);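 note: 0% = Bcl-B with tracer peptide and DMSO and 100% = tracer peptide lacking Bcl-B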
Conditions: GST-Bcl-B / FITC-TR3 peptide fluorescence polarization; stronger effect = higher value; compound at 3.75 mg/L
The whole screen tested about 50,000 compounds, of which about 800 (1.6%) showed an effect of 50% or more. Shown is part of a subset that was picked to be rich in strong results.
I would appreciate it if you labelled entries class 1 when displacement is 10% or higher, otherwise class 0.

MOLECULE: O=C(Nc1ccccc1)C1C2/C=C\CCCCC21 (stereo not drawn)
CLASSIFICATION: class 0

-- ask Could you tell me if the measured displacement of COc1cc(/C=c2/sc3nc4ccccc4n3c2=O)ccc1OCc1nn[nH]n1 reaches 10% or more?
-- reply class 0

-- ask Could you tell me if the measured displacement of COC(=O)c1ccc(C(=O)OC)c(NC(=O)Cc2ccccc2[N+](=O)[O-])c1 reaches 10% or more?
-- reply class 1

-- ask Could you tell me if the measured displacement of O=C(CSc1nc(-c2ccccc2)c(-c2ccccc2)o1)Nc1nccs1 reaches 10% or more?
-- reply class 1

-- ask Could you tell me if the measured displacement of CCOC(=O)C1=C(C)N=c2s/c(=C\c3ccc(Cl)cc3)c(=O)n2C1c1ccc2c(c1)OCO2 (stereo not drawn) reaches 10% or more?
-- reply class 1

-- ask Could you tell me if the measured displacement of Cc1ccc2c(c1)NC(c1ccc(C)o1)C1=C(CC(C)(C)CC1=O)N2 (stereo not drawn) reaches 10% or more?
-- reply class 1

-- ask Could you tell me if the measured displacement of Cc1cccc(/C=C2/SC(=S)N(CN3CCCCC3)C2=O)c1 reaches 10% or more?
-- reply class 1

-- ask Could you tell me if the measured displacement of CCOC(=O)CNC1CC(C)(C)NC(C)(C)C1 reaches 10% or more?
-- reply class 0

-- ask Could you tell me if the measured displacement of CNc1cc([N+](=O)[O-])ccc1N/C=C\C(=O)c1ccc2ccccc2c1 reaches 10% or more?
-- reply class 1

-- ask Could you tell me if the measured displacement of O=C1NC(=O)N(c2ccccc2Cl)C(=O)/C1=C\C=C\c1ccco1 reaches 10% or more?
-- reply class 1

-- ask Could you tell me if the measured displacement of Cc1ccc2c(c1)NC(c1ccc(F)cc1)C1=C(CC(C)(C)CC1=O)N2 (stereo not drawn) reaches 10% or more?
-- reply class 1

-- ask Could you tell me if the measured displacement of CCOC(=O)C1=C(C)N=c2s/c(=C\c3ccc(OCC)cc3)c(=O)n2C1c1ccccc1 (stereo not drawn) reaches 10% or more?
-- reply class 0

-- ask Could you tell me if the measured displacement of COC(=O)c1c(C)oc2ccc(OCc3cccc(Br)c3)cc12 reaches 10% or more?
-- reply class 0

-- ask Could you tell me if the measured displacement of Cc1c(-c2ccc(Cl)cc2)nc2ccccc2c1C(=O)O reaches 10% or more?
-- reply class 0

====

// reported displacement per item
Biological target: Bcl-2-like protein 10 (Homo sapiens) (UniProt Q9HD36)
Sequence (Q9HD36 whole entry, looked up): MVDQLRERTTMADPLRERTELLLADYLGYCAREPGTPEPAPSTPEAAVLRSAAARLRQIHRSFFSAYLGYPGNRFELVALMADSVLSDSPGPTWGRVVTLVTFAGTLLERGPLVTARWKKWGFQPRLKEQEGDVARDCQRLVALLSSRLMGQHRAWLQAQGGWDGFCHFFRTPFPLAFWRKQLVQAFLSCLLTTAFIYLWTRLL
Assay: TR3 peptide-Bcl-B binding displacers, biochemical primary FP assay, phenotype converters (AID 1240);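 note: 0% = Bcl-B with tracer peptide and DMSO and 100% = tracer peptide lacking Bcl-B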
Settings: GST-Bcl-B / FITC-TR3 peptide fluorescence polarization; stronger effect = higher value; compound at 3.75 mg/L
Among all 50,000 compounds or so, about 800 (1.6%) showed an effect of 50% or more. This is one part of a sample in which strong results are shown more often than they occur.
Note: unit % is implicit; provide only the numeric part.

Answered cases to consult:
COMPOUND: CC(=O)C1=C(O)C(=O)N(C)C1c1ccccc1[N+](=O)[O-] (centres undefined)
displacement / %: 2.8
//
COMPOUND: COc1ccc(C(=O)c2c(N)c(C#N)c(C)n2-c2ccccc2)cc1
displacement / %: 9.3

Tested system Bcl-2-like protein 10 (Homo sapiens) (UniProt Q9HD36); displacement recorded for O=C(COC(=O)C1CC(=O)N(c2ccc(Cl)cc2)C1)c1ccccc1 (centres undefined) was 9.1

Tested system Bcl-2-like protein 10 (Homo sapiens) (UniProt Q9HD36); displacement recorded for Cc1cc(OCC(O)CNC(C)C)cc(C)c1Cl (centres undefined) was 3.1

Tested system Bcl-2-like protein 10 (Homo sapiens) (UniProt Q9HD36); displacement recorded for O=C(NCc1cccs1)c1sc2cc(F)ccc2c1Cl was -3.8

Tested system Bcl-2-like protein 10 (Homo sapiens) (UniProt Q9HD36); displacement recorded for O=C(N/N=C/c1ccccc1)c1cc(Br)ccc1O was 7.4

Tested system Bcl-2-like protein 10 (Homo sapiens) (UniProt Q9HD36); displacement recorded for NS(=O)(=O)c1ccc(N/C=C/C(=O)c2ccco2)cc1 was 74.8

====

// reported displacement per item
Biological target: Bcl-2-like protein 10 (Homo sapiens)
Assay: TR3 peptide-Bcl-B binding displacers, biochemical primary FP assay, phenotype converters (AID 1240);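 note: 0% = Bcl-B with tracer peptide and DMSO and 100% = tracer peptide lacking Bcl-B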
Settings: GST-Bcl-B / FITC-TR3 peptide fluorescence polarization; stronger effect = higher value; compound at 3.75 mg/L
Out of some 50,000 compounds screened, about 800 (1.6%) showed an effect of 50% or more. Only a selection was taken, and strong results are over-represented in it overall.
Note: unit % is implicit; provide only the numeric part.

SMILES ENTRY: COc1cc2nc(-c3ccc([N+](=O)[O-])cc3)oc(=O)c2cc1OC
displacement (%): 78
--
SMILES ENTRY: COc1cc2nc(-c3ccc([N+](=O)[O-])c(C)c3)oc(=O)c2cc1OC
displacement (%): -11.4
--
SMILES ENTRY: COc1ccc(/C=C2\SC(=O)NC2=S)cc1
displacement (%): 67.8
--
SMILES ENTRY: O=C1Nc2ccc(Br)c3cccc1c23
displacement (%): 15.9
--
SMILES ENTRY: COc1ccc(/C=C2\SC(=S)N(C(C)C)C2=O)cc1
displacement (%): -3.9
--
SMILES ENTRY: COc1ccc(/C=C2/SC(=O)NC2=O)c(OC)c1
displacement (%): 4.9
--
SMILES ENTRY: O=C(Cc1ccccc1)Nc1ccc(Cl)c(-c2nc3cc(Cl)ccc3o2)c1
displacement (%): -37.9
--
SMILES ENTRY: O=S(=O)(Nc1nc2ccccc2nc1Nc1ccccc1)c1ccccc1
displacement (%): 16.9

From here, focus on the item given below.
Tested system Bcl-2-like protein 10 (Homo sapiens); displacement recorded for O=c1[nH]c2ccc(Nc3nc4ccccc4nc3NS(=O)(=O)c3ccc(Cl)cc3)cc2[nH]1 was 102

====

// reported displacement per item
Target: Bcl-2-like protein 10 (Homo sapiens) (UniProt Q9HD36)
Assay: TR3 peptide-Bcl-B binding displacers, biochemical primary FP assay, phenotype converters (AID 1240);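 note: 0% = Bcl-B with tracer peptide and DMSO and 100% = tracer peptide lacking Bcl-B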
Settings: GST-Bcl-B / FITC-TR3 peptide fluorescence polarization; stronger effect = higher value; compound at 3.75 mg/L
Out of some 50,000 compounds screened, about 800 (1.6%) showed an effect of 50% or more. For the sample, strong results were picked, then their nearest neighbours and some compounds at random.
# include the unit after the value

COMPOUND: N#Cc1c(-c2cccc(Br)c2)c(C#N)c2nc3ccccc3n2c1N
RECORDED VALUE: 109%

COMPOUND: N#C/C(=C\c1ccco1)c1nc(-c2ccccc2)cs1
RECORDED VALUE: 58.3%

COMPOUND: COc1cc2c(cc1NCc1cccc([N+](=O)[O-])c1)oc1ccccc12
RECORDED VALUE: -6.6%

COMPOUND: O=C1OC(c2ccc(Br)cc2)=C/C1=C\C=C\c1ccccc1
RECORDED VALUE: -8.3%

COMPOUND: Cc1cccc(NC(=O)c2c(NC(=O)C(C)(C)C)sc3c2CCC3)c1
RECORDED VALUE: -2.3%

COMPOUND: Cc1ccc(-c2csc(/C(C#N)=C/c3sccc3C)n2)cc1C
RECORDED VALUE: 11.7%

Sample COc1cc(/C=c2\sc3nc4ccccc4n3c2=O)cc(I)c1OCCOc1cccc(C)c1 ; displacement observed: 10.9%

Sample Cc1onc(-c2c(Cl)cccc2Cl)c1C(=O)Nc1ccc(N(C)C)cc1 ; displacement observed: 12.1%

Sample CCOc1ccccc1NC(=O)C1CN(S(=O)(=O)c2ccccc2)CCN1S(=O)(=O)c1ccccc1 (configuration not stated) ; displacement observed: 11.2%

Sample COc1cc(/C=c2\sc3nc4ccccc4n3c2=O)cc(I)c1OCC(=O)O ; displacement observed: -4.2%

Sample CC(Oc1ccc2oc(-c3ccccc3)c(C(=O)O)c2c1)C(=O)O (configuration not stated) ; displacement observed: 59.2%

Sample N#Cc1c(-c2ccc(O)cc2)c(C#N)c2nc3ccccc3n2c1N ; displacement observed: 12.5%

Sample COc1cccc(/C=N/NC(=O)c2cc(C)[nH]n2)c1OC ; displacement observed: -9%

Sample COc1ccc(C(=O)CSc2nc3c(c(-c4ccc(C)o4)c2C#N)CCCC3)cc1 ; displacement observed: 7.6%

Sample COc1ccc([N+](=O)[O-])cc1-c1ccc(/C=C2\C(=O)NC(=O)N(c3ccc(Cl)cc3)C2=O)o1 ; displacement observed: 25.1%

Sample O=C(O)C(Cc1ccccc1)n1c(O)c(/C=C2\C=Nc3ccccc32)sc1=S (configuration not stated) ; displacement observed: -2.3%

Sample N/C(=N\OC(=O)c1ccc(Cl)c([N+](=O)[O-])c1)c1ccccc1 ; displacement observed: -3.2%

Sample Cc1ccc([N+](=O)[O-])cc1-c1ccc(/C=C2\C(=O)NC(=O)N(c3ccc(Cl)cc3)C2=O)o1 ; displacement observed: 6.8%

Sample CCOc1ccc(/C=N\NC(=O)c2ccc(Br)cc2)c(O)c1 ; displacement observed: 6.9%

Sample Cc1cccc(N2C(=O)/C(=C/c3ccco3)SC2=S)c1C ; displacement observed: 1.9%
